The entries below come with measured melting point values attached.
property_measured: melting point

* CN1N=C(c2ccccc2Cl)N(C)N=C1c1ccccc1Cl | 148 to 149 °C
* COc1cc(CC(C#N)(C=O)C(OC)OC)cc(OC)c1OC (stereo not drawn) | 118 to 122 °C
* Brc1ccc2c3c(cccc13)C(NCCCCn1ccnc1)=N2 | 145 to 147 °C
* COC(=O)C[C@]1(C)[C@@H](O)CC[C@H]1C1CCc2cc(OC)ccc2C1 (stereo partly drawn) | 86 to 87 °C
* CC(NC(=O)Nc1ccc(Br)cn1)c1ncccc1F (stereo not drawn) | 151 to 154 °C
* CCOC(=O)c1c(CCCCn2cncn2)nc2sc3cnccc3c2c1-c1ccc(OC)c(OC)c1 | 118 to 119 °C
* c1ccc(COc2ccc(N3CCN(Cc4nc5ccccc5[nH]4)CC3)nc2)cc1 | 62 to 64 °C
* COc1cc2c(cc1N1CCN(CC3Cc4ccccc4C3)CC1)OC=CCO2 | 120 to 122 °C
* CN1C(=O)N(c2c(Cl)cccc2Cl)Cc2cnc(NCCc3ccccc3)nc21 | 148 to 151 °C
* COc1ccc(Cl)cc1C1(O)C(=O)Nc2ccc(C(F)(F)F)cc21 (stereo not drawn) | 218 to 220 °C
* Cc1nc2c3c(c(C(=O)N4CC4)cc2n1C)CCC(c1ccccc1)O3 (stereo not drawn) | 201 to 204 °C
* COc1ccc(S(=O)(=O)N(CC(N)=O)c2ccc(N(C)C)cc2Cc2ccccc2Cl)cc1OC | 130 °C
* CCOC(=O)Cc1ccc(Oc2ccc([N+](=O)[O-])cc2)cc1 | 70.5 to 73 °C
* NC(=O)c1c(I)c(C(=O)NC(CO)CO)c(I)c(C(=O)NC(CO)CO)c1I | 246 to 252 °C
* O=C(NCC1Cc2c(cccc2-c2ccccc2)O1)OCc1ccccc1 (stereo not drawn) | 132 to 134 °C
* CC1(C2CCC3C4CC=C5CC(O)CC(O)C5(C)C4CCC32C)OCCO1 (stereo not drawn) | 203 to 207 °C
* CCOC(=O)c1c(N)n(CC)c2nc(Cl)ccc2c1=O | 252 °C
* COc1cccc(-n2c(-c3sc(Nc4ccccc4)nc3-c3ccccc3)nc3ccccc3c2=O)c1 | 250 to 252 °C
* COC(=O)c1ncn2c1[C@@H]1CCCN1C(=O)c1ccccc1-2 | 165 to 167 °C
* CS(=O)c1ccc(C2=C(c3ccc(F)cc3)C(=O)C(C)(C)O2)cc1 (stereo not drawn) | 134 to 136 °C
* CC(Cl)c1nnc2n1-c1ccc(Cl)cc1C(c1ccccc1)=NC2 (stereo not drawn) | 154 to 156 °C
* O=C(CC(=O)c1cccc(C(F)(F)F)c1NC(=O)CCl)Nc1nccs1 | 192 °C
* CONC(=O)COc1cc2c(cc1C#Cc1ccccc1)NC(=O)CC(c1cccc(C#N)c1)=N2 | > 250 °C
* Cn1c(=O)n(Cc2ccc(F)cc2)c(=O)c2cc(C#CCc3ccccc3)ccc21 | 160 °C
* O=C(Cc1cccc(C(F)(F)F)c1)N1CCc2cc3c(cc2CC1)OCO3 | 102 to 104 °C
* Cc1ccc(-c2ccc(O)cc2)c(-c2ccc(OCCN3CCCC3)cc2)n1 | 159 to 161 °C
* CC(C)(O)Cn1c(CO)nc2c(N)nc3cc(-c4ccccc4)cnc3c21 | 244 to 245 °C
* CCCCn1cc(C2CCN(CCOc3ccccc3C(=O)O)CC2)c2ccncc21 | 158 to 159 °C
* Cc1c[nH]c2ccc(-c3nn(C(C)c4oc5ccccc5c(=O)c4-c4cccc(F)c4)c4ncnc(N)c34)cc12 (stereo not drawn) | 171 to 173 °C
* COC(=O)C(C)Oc1ccc(NC(=O)CO)cc1 (stereo not drawn) | 111 to 113 °C
* COc1cc2c(cc1OC)C(C=Cc1ccc([N+](=O)[O-])cc1)=NN(C(C)=O)C(C)C2 (stereo not drawn) | 182 to 184 °C
* CCOC(=O)C(C#N)=CNc1ccc(C=C(C#N)C(=O)OCC)o1 | 206 to 208 °C
* CN(C(=O)c1ccccc1)[Si](C)(C)N(C)C(=O)c1ccccc1 | 54 to 56 °C
* CS(=O)(=O)Nc1ccc2ccccc2c1-c1c(P(c2ccccc2)c2ccccc2)ccc2ccccc12 | 109 °C
* O=C(C#Cc1ccc(CN2CCC(N3CCCC3)CC2)cc1)Nc1ccc(-c2ccc(Cl)cc2)cc1 | 191 to 192 °C
* COc1ccc(C2=NN(C3CCN(C(=O)CCSCCNC(=O)OC(C)(C)C)CC3)C(=O)[C@@H]3CC=CC[C@H]23)cc1OC | 132 to 134 °C
* CC(C)C#Cc1ncn2c1CN(C)C(=O)c1c(Cl)cccc1-2 | 128 to 130 °C
* COc1c(-c2ccc3cc(NS(C)(=O)=O)ccc3c2)cc(-c2ccc[nH]c2=O)cc1C(C)(C)C | > 300 °C
